Biological target: T1, IFN-αJ1 (human, UniProt P01567 24-189)
T1 construct: also called IFN-α7; alpha J1
Experiment: ProteOn, one antigen concentration
MEASURE: pKd
Please express pKd as -log10 of the molar concentration.

Please supply the value of reported pKd for the item IFWM3344 (antibody, V domains shown, VH IFWH624, VL IFWL998; converted mAb; also called IFWB3079) VH: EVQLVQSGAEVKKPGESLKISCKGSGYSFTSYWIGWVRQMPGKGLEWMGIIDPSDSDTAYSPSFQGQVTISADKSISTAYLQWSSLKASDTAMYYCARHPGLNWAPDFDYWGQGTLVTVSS VL: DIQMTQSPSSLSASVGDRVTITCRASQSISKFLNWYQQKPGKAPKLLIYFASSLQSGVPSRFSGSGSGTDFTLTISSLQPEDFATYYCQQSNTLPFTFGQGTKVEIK
9.56

Indicate the recorded pKd value for this binder: IFWM3302 (antibody, V domains shown, VH IFWH591, VL IFWL991; converted mAb; also called IFWB3037) VH: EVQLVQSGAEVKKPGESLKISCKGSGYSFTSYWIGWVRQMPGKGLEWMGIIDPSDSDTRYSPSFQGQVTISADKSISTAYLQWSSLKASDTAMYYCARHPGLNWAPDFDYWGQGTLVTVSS VL: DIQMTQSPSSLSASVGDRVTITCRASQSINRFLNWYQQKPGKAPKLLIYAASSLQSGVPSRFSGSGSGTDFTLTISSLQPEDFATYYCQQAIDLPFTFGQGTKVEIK
9.64
